These data points were gathered from patent US20250163127A1.

STUDY_TARGET: CTLA-4 (Homo sapiens (Human)) (UniProt P16410)
Sequence (P16410 36-223): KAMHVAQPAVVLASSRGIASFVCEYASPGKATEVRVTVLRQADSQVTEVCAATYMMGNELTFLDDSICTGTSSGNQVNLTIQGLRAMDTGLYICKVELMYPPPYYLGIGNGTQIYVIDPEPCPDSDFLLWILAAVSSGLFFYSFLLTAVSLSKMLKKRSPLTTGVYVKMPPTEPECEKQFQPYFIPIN
ASSAY_PROCEDURE: flow cytometry, transfected cells

{"BINDER": "ICOSL-Fc N52A/N57F/Q100S (Fc fusion) DTQEKEVRAMVGSDVELSCACPEGSRFDLNDVYVYWQTSESKTVVTYHIPQASSLEFVDSRYRNRALMSPAGMLRGDFSLRLFNVTPQDEQKFHCLVLSSSLGFQEVLSVEVTLHVAANFSVPVVSAPHSPSQDELTFTCTSINGYPRPNVYWINKTDNSLLDQALQNDTVFLNMRGLYDVVSVLRIARTPSVNIGCCIENVLLQQNLTVGSQTGNDIGERDKITENPVSTGEKNAAT", "UNIT_NAME": "MFI", "MFI": 255000}
{"BINDER": "ICOSL-Fc N52S/N57Y/Q100V (Fc fusion) DTQEKEVRAMVGSDVELSCACPEGSRFDLNDVYVYWQTSESKTVVTYHIPQSSSLEYVDSRYRNRALMSPAGMLRGDFSLRLFNVTPQDEQKFHCLVLSVSLGFQEVLSVEVTLHVAANFSVPVVSAPHSPSQDELTFTCTSINGYPRPNVYWINKTDNSLLDQALQNDTVFLNMRGLYDVVSVLRIARTPSVNIGCCIENVLLQQNLTVGSQTGNDIGERDKITENPVSTGEKNAAT", "UNIT_NAME": "MFI", "MFI": 305000}
{"BINDER": "ICOSL-Fc N52P/N57S/Q100G (Fc fusion) DTQEKEVRAMVGSDVELSCACPEGSRFDLNDVYVYWQTSESKTVVTYHIPQPSSLESVDSRYRNRALMSPAGMLRGDFSLRLFNVTPQDEQKFHCLVLSGSLGFQEVLSVEVTLHVAANFSVPVVSAPHSPSQDELTFTCTSINGYPRPNVYWINKTDNSLLDQALQNDTVFLNMRGLYDVVSVLRIARTPSVNIGCCIENVLLQQNLTVGSQTGNDIGERDKITENPVSTGEKNAAT", "UNIT_NAME": "MFI", "MFI": 5050}
